# assayed-system: T1, BCMA (Homo sapiens (Human), UniProt Q02223 1-54, limits assumed)
# T1 sequence: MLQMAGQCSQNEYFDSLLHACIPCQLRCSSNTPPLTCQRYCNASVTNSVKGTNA
# measurement-protocol: ELISA, format not described
# Set-up: unit not given here
Note to self: values exactly at 10 are y. So ELISA_avg at or above 10 is y, below is n.

Q: Could you tell me if the measured ELISA_avg of D-domain SEQ ID NO: 238 (designed binder) MGSWDAFKHRLALIKWYLEALGGSEAELAHFEEYIAEFESNLQSYKGKGNPEVEALRKEAAAIRDELQAYRHN reaches 10 or more?
A: y

Q: Confirm if ELISA_avg reported for the binder D-domain SEQ ID NO: 106 (designed binder) MGSWEEFSDRLEAILRRLDALGGSEAELAAFEKEIAAFESELQAYKGKGNPEVEDLRFAAAIIRVQLQAYRHN is 10 or above.
A: n

Q: Textbook exercise: given the entry D-domain SEQ ID NO: 290 (designed binder) MGSWTGFKYRLAIIKFMLEALGGSEAELAFFEQWIADFENELQYYKGKGNPEVEALRKEAAAIRDELQAYRHN , state whether its ELISA_avg is greater than or equal to 10.
A: y

Q: Form field: ELISA_avg at least 10? Entry: D-domain SEQ ID NO: 179 (designed binder) MGSWVEFWERLDAIDNRLGALGGSEAELAAFEKEIAAFESELQAYKGKGNPEVEWLRWHAAYIRGYLQAYRHN
A: y

Q: Test whether the binder D-domain SEQ ID NO: 214 (designed binder) MGSWTEFWARLYAIEMRLFALGGSEAELAAFEKEIAAFESELQAYKGKGNPEVEHLRRVAALIREQLQAYRHN records ELISA_avg of 10 or higher.
A: y

Q: Decide: ELISA_avg of D-domain SEQ ID NO: 99 (designed binder) MGSWTEFRDRLGAIYHRLDALGGSEAELAAFEKEIAAFESELQAYKGKGNPEVEELRYQAAIIRVYLQAYRHN >= 10?
A: n

Q: Could you tell me if the measured ELISA_avg of D-domain SEQ ID NO: 126 (designed binder) MGSWTEFHQRLGAIHARLGALGGSEAELAAFEKEIAAFESELQAYKGKGNPEVEYLRFSAAFIRLKLQAYRHN reaches 10 or more?
A: n

Q: Identify whether the reported ELISA_avg of the following binder is 10 or greater: D-domain SEQ ID NO: 242 (designed binder) MGSWSDFKYRLAVIKFYLEALGGSEAELASFESFIAHFEDDLQKYKGKGNPEVEALRKEAAAIRDELQAYRHN
A: y

Q: Could you verify whether the entry D-domain SEQ ID NO: 111 (designed binder) MGSWTEFDHRLGAIWERLVALGGSEAELAAFEKEIAAFESELQAYKGKGNPEVEELRFHAAIIRIFLQAYRHN shows ELISA_avg of no less than 10?
A: n

Q: ELISA_avg >= 10 for D-domain SEQ ID NO: 318 (designed binder) MGSWIVFKQSLAWIKEHLEALGGSEAELAEFEFYIANFEHTLQNYKGKGNPEVEALRKEAAAIRDELQAYRHN ?
A: y
